experiment: recombinant UMI read abundance after kanamycin selection (control-corrected) (log10(CPM+1)); higher = more efficient recombination; extreme values may be limits of the assay; sequences stand for … in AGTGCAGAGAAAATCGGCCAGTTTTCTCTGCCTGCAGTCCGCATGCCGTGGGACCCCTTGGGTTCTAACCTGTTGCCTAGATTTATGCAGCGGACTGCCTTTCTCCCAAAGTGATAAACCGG…AGGTTGGTTTCACT; site = the 11-nt donor;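 note: IS621 bridge recombinase in Escherichia coli cells against a fixed T5 target plasmid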
outcomeMeasure: recombinant UMI read abundance (log10)

entrysequence="AGGAAGCCATGGACCGGTTTTCCCGGTAATCCGTATTTGCC (site AGGAAGCCTGG)" outcomemeasure="recombinant UMI read abundance (log10)" valueobserved=0
entrysequence="TATTTGGCATGGACCGGTTTTCCCGGTAATCCGTATTTGTG (site GATTTGGCTCA)" outcomemeasure="recombinant UMI read abundance (log10)" valueobserved=0.026
entrysequence="AGTGTGTCATGGACCGGTTTTCCCGGTAATCCGTATTTGAC (site ATTGTGTCTGT)" outcomemeasure="recombinant UMI read abundance (log10)" valueobserved=0
entrysequence="CAATTCTCATGGACCGGTTTTCCCGGTAATCCGTATTTGCT (site CAATTCCCTAG)" outcomemeasure="recombinant UMI read abundance (log10)" valueobserved=0.421
entrysequence="GCGAAAACATGGACCGGTTTTCCCGGTAATCCGTATTTGCG (site GCGAAAACTGG)" outcomemeasure="recombinant UMI read abundance (log10)" valueobserved=0
entrysequence="GGGGCACCATGGACCGGTTTTCCCGGTAATCCGTATTTGCA (site GGGGGACCTTG)" outcomemeasure="recombinant UMI read abundance (log10)" valueobserved=0
entrysequence="TACTTTGCATGGACCGGTTTTCCCGGTAATCCGTATTTGGA (site TACTTTGCTTC)" outcomemeasure="recombinant UMI read abundance (log10)" valueobserved=0.0143
entrysequence="CGCTAGGCATGGACCGGTTTTCCCGGTAATCCGTATTTGGT (site AGCTAGGCTAC)" outcomemeasure="recombinant UMI read abundance (log10)" valueobserved=0.0207
entrysequence="TAAGATTCATGGACCGGTTTTCCCGGTAATCCGTATTTGTT (site GAAGATTCTAA)" outcomemeasure="recombinant UMI read abundance (log10)" valueobserved=0
entrysequence="ACACGAACATGGACCGGTTTTCCCGGTAATCCGTATTTGTA (site ACACGAACTTA)" outcomemeasure="recombinant UMI read abundance (log10)" valueobserved=2.52
entrysequence="TCAGAGACATGGACCGGTTTTCCCGGTAATCCGTATTTGGG (site TCAGAGACTCA)" outcomemeasure="recombinant UMI read abundance (log10)" valueobserved=0.0103
entrysequence="ACCTTGACATGGACCGGTTTTCCCGGTAATCCGTATTTGGG (site ACCTCGACTCC)" outcomemeasure="recombinant UMI read abundance (log10)" valueobserved=0.0142
entrysequence="GCCTATGCATGGACCGGTTTTCCCGGTAATCCGTATTTGTC (site GCCTATGCTGA)" outcomemeasure="recombinant UMI read abundance (log10)" valueobserved=1.57
entrysequence="TGTACACCATGGACCGGTTTTCCCGGTAATCCGTATTTGAC (site TGAACACCTGT)" outcomemeasure="recombinant UMI read abundance (log10)" valueobserved=0
entrysequence="GGTAGAACATGGACCGGTTTTCCCGGTAATCCGTATTTGGC (site GCTAGAACTGC)" outcomemeasure="recombinant UMI read abundance (log10)" valueobserved=0
entrysequence="TAGCCTTCATGGACCGGTTTTCCCGGTAATCCGTATTTGCT (site TAGCCTTCTAG)" outcomemeasure="recombinant UMI read abundance (log10)" valueobserved=0
entrysequence="GTATGCACATGGACCGGTTTTCCCGGTAATCCGTATTTGTA (site ATATGCACTTA)" outcomemeasure="recombinant UMI read abundance (log10)" valueobserved=0.664
entrysequence="CTAGGTACATGGACCGGTTTTCCCGGTAATCCGTATTTGAC (site CTAGGTACTGT)" outcomemeasure="recombinant UMI read abundance (log10)" valueobserved=2.1

Source of measurements: the supplement of paper PMC11208160
